testedTarget: Melanocortin receptor 4 (Homo sapiens, UniProt P32245)
Sequence (P32245 whole entry): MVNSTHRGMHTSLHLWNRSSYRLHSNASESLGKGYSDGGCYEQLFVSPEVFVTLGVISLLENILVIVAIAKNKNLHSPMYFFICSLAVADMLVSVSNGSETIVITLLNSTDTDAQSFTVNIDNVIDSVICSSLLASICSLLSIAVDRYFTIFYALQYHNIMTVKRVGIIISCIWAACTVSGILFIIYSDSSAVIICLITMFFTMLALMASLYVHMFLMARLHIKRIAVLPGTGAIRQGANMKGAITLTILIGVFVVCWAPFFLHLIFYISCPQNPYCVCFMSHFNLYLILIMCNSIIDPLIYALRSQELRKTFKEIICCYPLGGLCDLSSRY
methodNotes: Agonist activity at human MC4R transfected in HEK293 cells
pEC50: −log10 of the molar value.
assayMetric: pEC50

Example entries begin here.
> print(dat)
                          compoundstructure  measurement
1  CC(=O)N[C@@H](Cc1c[nH]cn1)C(=O)N[C@H](Cc1ccccc1)C(=O)N1C[C@@H](OCc2ccc3ccccc3c2)C[C@H]1CCCN=C(N)N         8.05
2  NC(N)=NCCC[C@H]1C[C@@H](OCc2ccc3ccccc3c2)CN1C(=O)[C@@H](Cc1ccccc1)NC(=O)[C@@H]1CCCN1         7.77
3  NC(=O)C[C@H](N)C(=O)N[C@H](Cc1ccccc1)C(=O)N1C[C@@H](OCc2ccc3ccccc3c2)C[C@H]1CCCN=C(N)N         5.79
4  CC(=O)N[C@@H](Cc1ccc(O)cc1)C(=O)N[C@H](Cc1ccccc1)C(=O)N1C[C@H](OCc2ccc3ccccc3c2)C[C@@H]1CCCN=C(N)N         7.85
5  CC(=O)N[C@@H](CCC(N)=O)C(=O)N[C@H](Cc1ccccc1)C(=O)N1C[C@H](OCc2ccc3ccccc3c2)C[C@@H]1CCCN=C(N)N         8.37
6  CC(=O)N[C@@H](Cc1c[nH]cn1)C(=O)N[C@H](Cc1ccccc1)C(=O)N1C[C@@H](OCc2ccc3ccccc3c2)C[C@@H]1CCCN=C(N)N         8.64

I: CC(=O)N[C@@H](Cc1cnc[nH]1)C(=O)N[C@H](Cc1ccccc1)C(=O)N1C[C@H](OCc2ccc3ccccc3c2)C[C@@H]1C(=O)NCCN=C(N)N
II: N=C(N)NCCC[C@@H]1C[C@H](OCc2ccc3ccccc3c2)CN1C(=O)[C@@H](Cc1ccccc1)NC(=O)[C@@H]1CCCCN1
## Task When I and II are compared, which has the higher number for pEC50? Your answer should be the label of the entry you select.
## Result I
